# Tested on: MS2 coat protein
# Experimental Protocol: apparent KD of MS2 coat protein; higher = weaker reporter binding
# Details: Eterna round: R107; input ligand: arginine 13.2 mM
Assign 1 whenever apparent KD of MS2 coat protein does not fall below 40 nM; assign 0 whenever it does.

Examples from the recorded data:
Residue Sequence: GGACCAUGGAGCGAUACCAGCUUGAGUGUACUGGCCAGGUACAUGAGGAUCACCCAUGUAAGCCCUUGGCAGCGCUCCAUGGUCC [#1 Exclusion - Theophylline B Attempt #25 (HarryS)]
Class Name: 0
--
Residue Sequence: ACAAGGACAUGAGGAUCACCCAUGUGGGAAGGAGCGCAUAAAUAUGCAGGUAGGUCGCCCGGCGUGAUAUUUAAUAUUUUAAUAA [Exclusion - Arginine A]
Class Name: 0
--
Residue Sequence: AGAGCAUUGACGGCCGCCACUCGUGUCACAUGAGGAUCACCCAUGUGACGGGUGAUCGCCCGGUUGAGGACCGGGUCAAUGCUCA [Omei Tryp SS B v8]
Class Name: 0
--
Residue Sequence: GCAUCCUAGUCGGCCGCCACUGCAUGUAGAUACCUGCUACAUGAACAUGAGGAUCACCCAUGUAGCAGGACCGGGACUAGGAUGC [(Trp1)-(MT)''-(MT)'-(Ms2)-(Trp2)_Design1]
Class Name: 1
--
Residue Sequence: AUCGUACCUGAUGAUACCAGCAAUUGCUCGUAACAUGAGGAUCACCCAUGUGAUCAGUGAUGCCCUUGGCAGCAUGAUCGGUGCA [Same State - Theophylline B (Freestyle 19)]
Class Name: 1

Item GGAUGAAACUGAAGGAGCGAGAUCACAAGAUUGGGUCUAACAUGAGGAUCACCCAUGUAAUCUCAGGUAGGUCGCAGUGUCCCUU [Exclusion Arginine B GF 12] with apparent KD of MS2 coat protein of 40 nM or above?
0

Item ACUAGAGGUGGAAGGAGCGGGAGACAUGAGCAUCACAUGAGGAUCACCCAUGUAGGAUCAUCCCAGGUAGGUCGCCAUGUCGAAA [h.hgmullin] with apparent KD of MS2 coat protein of 40 nM or above?
1

Item AAAAUAAAGGCGGCCGCCACUAGAGUUAGGCAUAUGUACUGGGUAACAUGAGGAUCACCCAUGUAUAGGACCGGGCCAUAAUAAA [Same State - Tryptophan B (Freestyle 1)] with apparent KD of MS2 coat protein of 40 nM or above?
1

Item UAUCGUCAGACGGCCGCCACUAGAACAUGAGGAUCACCCAUGUAGGCGGCCGAUUCCUCAUUAACUAGGACCGGGUCUGACGAAU [(Trp1)-(Ms2)-(T)'-(M)'-(Trp2)_Design11] with apparent KD of MS2 coat protein of 40 nM or above?
0

###

The entries below come with measured apparent KD of K4 kissing-loop reporter values attached.
# Tested on: K4 kissing-loop RNA reporter;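 also: bound reporter read as fluorescence of individual clusters on recovered sequencing chips by microscopy, with normalized cluster intensities fitted with a binding model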
# Experimental Protocol: apparent KD of K4 kissing-loop reporter; higher = weaker reporter binding
# Details: Eterna round: R107; input ligand: tryptophan 2.4 mM
The figure you give is taken to be in nM; do not add the unit.

Example entries begin here.
Residue Sequence: ACGCGCGCGAGUGAUGUUCGGAGCGGCUGGCAGGAUAUGUAGCAAUGCAGAAGGGUCGUGGCGGUGGGCGCGCAAGCGGCUGCCG [#2 Exclusion - FMN A Attempt #12 (HarryS)]
Measurement Name: apparent KD of K4 kissing-loop reporter
Measurement Unit: nM
Recorded Number: 371
//
Residue Sequence: GGAUAGGAUAGAGGAUAUGGCUUACGCAGAAAUAACUUAUUGUGUAAAUCCAUAGGGAGUGAUGUUCCAGAAGGCUGUCCUAUCG [MatMod 17 - Jieux - Exclusion - FMN B]
Measurement Name: apparent KD of K4 kissing-loop reporter
Measurement Unit: nM
Recorded Number: 201
//
Residue Sequence: AGUCUGUAUGACAUAAGUGAUGUUUAUGUUCGAGGACCGGUACGGCCGCCACUCGCAAAUGUAUGAUUUCACGUUUGUGCAAGUA [KL-XTryp-A #analogue]
Measurement Name: apparent KD of K4 kissing-loop reporter
Measurement Unit: nM
Recorded Number: 292
//
Residue Sequence: CGUUUAUAGCAGGAUACCAGUACCCAUAAAGUACGUUAAUAGUAGAGUGAUGUUCUAAAGUACCCUUGGCAGCUUCCCGUGAGUG [ExTheophylB.T]
Measurement Name: apparent KD of K4 kissing-loop reporter
Measurement Unit: nM
Recorded Number: 67.8
//
Residue Sequence: CAUACGCAUGGAGGAUAUGAGAUUUCUCAUAUUAUUUAAUAUUCUCAGUGAUGUUGAGAAUUAAACUCAGAAGGCCAUGUGUAUG [Ex FMN B 4]
Measurement Name: apparent KD of K4 kissing-loop reporter
Measurement Unit: nM
Recorded Number: 163

Tell me the measured apparent KD of K4 kissing-loop reporter of GUGCGGCUAGUGAUGUUGGUUGCGUGGGAAGGAGCGCAGAAACAUGCAGGUAGGUCGCCCACACCUCUGAAAGGAGGUUAAUUCA [Diusdige] , please.
248

Tell me the measured apparent KD of K4 kissing-loop reporter of GGUAGCAUGGCGGCCGCCACUAUCAGGAGUGAUGUUCCAACGCAGAGCUUCAGCUAGUGUGUAAAUAGGACCGGGCCAUGCUACC , please.
866

Tell me the measured apparent KD of K4 kissing-loop reporter of UACUAUAGUGAUGUUAUAGAUAAACCAGAUACCAGUGUAACAUAACACCCUUGGCAGCUGAUAAGGGAAAGUAUAAAUGUGUAUU [AstrosSSTHe-A#3newdesignED] , please.
205

Tell me the measured apparent KD of K4 kissing-loop reporter of GCAGUGAUGUUGCGGAUGUACAGUGGCGUGCGAGGACCGGUACGGCCGCCACUCGUACAGAGCCAGCUAAUACAUCGAUUGGUGA [whbob_SS_Tryp_A_m7] , please.
212

Tell me the measured apparent KD of K4 kissing-loop reporter of AGCUAGUGAAACUAGUUUAAACUAGGUGAAGGAGCGAUCGAAAGAUCAGGUAGGUCGCACCUAACUGAGUGAUGUUCAGGAAAUA [KL-SSArg-A4] , please.
61.3

Tell me the measured apparent KD of K4 kissing-loop reporter of GCUAGCAUGGCAGGAUAUAGCAAUAGGAGUGAUGUUCCUUGGUAGGUGAGUGAUGUUCACUACCAACUAGAAGGGCCAUGCUAGC , please.
129

Tell me the measured apparent KD of K4 kissing-loop reporter of UUUUAAUGCAGUGAUGUUGCUAAUAAAACAGAGGAUAUGCAUGGAAGCAGAAGGCUGAAAUAUUAUACUUUAAUAAAUUAUAUUU [JR_SSFMNA_Sub010] , please.
66.6

###

# Tested on: MS2 coat protein
# Experimental Protocol: apparent KD of MS2 coat protein; designed switch direction (-1 OFF switch, 1 ON switch): -1; higher = weaker reporter binding
# Details: input ligand: FMN 200 uM
The entries below come with measured apparent KD of MS2 coat protein values attached.
The figure you give is taken to be in nM; do not add the unit.

Residue Sequence: ACAUGUUGCGCAGGAUAUGAGACACAUGAGGAUCACCCAUGUGGUUACAUGUCUUACCAAGCGUCUCAGAAGGGUGUGAACAUG [Ex NG2 #33] (Eterna round: R96, puzzle: Exclusion NG 2)
Measurement Name: apparent KD of MS2 coat protein
Recorded Number: 36.4
//
Residue Sequence: AUAAUGUGAGGAUAUCAGUCGACUAGCCUCGGCUAGUCGACUGAGAAGGUACAUGAGGAUCACCCAUGUGGUUC [E4/11-B2] (Eterna round: R97, puzzle: Exclusion 4)
Measurement Name: apparent KD of MS2 coat protein
Recorded Number: 882

Tell me the measured apparent KD of MS2 coat protein of ACCUAUGAGGAGGAUAUACGGUGCGAAAGGAAGGUAGAAGGCUUCACAUGAGGAUCACCCAUGUCGAUAAGCGA [EX6 #85] (Eterna round: R97, puzzle: Exclusion 6) , please.
27.7

###

# Test system: MS2 coat protein
# Experimental Protocol: apparent KD of MS2 coat protein; higher = weaker reporter binding
# Details: Eterna round: R107; input ligand: none
Assign y whenever apparent KD of MS2 coat protein does not fall below 30 nM; assign n whenever it does.

Examples from the recorded data:
Residue Sequence: AAUAAACAUGAGGAUCACCCAUGUAUGGAAGGAGCGGUGAAUAAACCAGGUAGGUCGCCAGUGUGAGGGUCAUCUAUGUAAUAAA [Exclusion - Arginine A (Freestyle 2)]
Class Name: y

Residue Sequence: UGGUAUGUAGGAAGGAGCGCAUACUUCACAUGAGGAUCACCCAUGUCGAGACGUGAGUCAGUGCAGGUAGGUCGCCUAGUUAUGA [Same State - Arginine B (Freestyle 22)]
Class Name: y

Item GCACGACAUGAGGAUCACCCAUGUGCAGAUACCAGUAAUGUAUAUUACCCUUGGCAGCUGAGUAGGUCUGGAGGGCUAUAGGUAA [Same State Theophylline A GF11] with apparent KD of MS2 coat protein of 30 nM or above?
n

Item AGAAUAUAGUCGGCCGCCACUCUACAUACAUGAGGAUCACCCAUGUUUACAUAGUGGAAACACAUGAGGACCGGGACAUAGGCAU [#16 Same State - Tryptophan B] with apparent KD of MS2 coat protein of 30 nM or above?
n

Item GCUUGGGUGGCACAGCACUGGCAGUGCGAUACCAGCACGGUAACGUGCCCUUGGCAGCGCACAUGAGGAUCACCCAUGUGGUGCG [#1 Exclusion - Theophylline A Attempt #26 (HarryS)] with apparent KD of MS2 coat protein of 30 nM or above?
n
